Exercise: state measured pKi ± SEM Sigma-2 for each of the compounds provided.
Target: sigma-2 (Homo sapiens, UniProt Q5BJF2)
Sequence (Q5BJF2 whole entry): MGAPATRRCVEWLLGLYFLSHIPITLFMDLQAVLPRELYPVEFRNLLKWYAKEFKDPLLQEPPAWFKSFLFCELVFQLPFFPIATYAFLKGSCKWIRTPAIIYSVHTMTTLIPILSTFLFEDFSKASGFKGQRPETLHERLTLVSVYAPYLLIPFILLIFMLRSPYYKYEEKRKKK
Assay: Radioligand binding assay against sigma-2
Conditions: displacement of [3H]-DTG; <5 = not >50% inhibition at 10 μM single concentration

Bench note: what pKi ± SEM Sigma-2 did O=C(c1nn(Cc2ccccc2)c2c1CC(NCCc1ccncc1)CC2)N1CCCCC1 (centres unmarked) show?
<5 M

What do you have for CCCn1nc(C(=O)N(C)C)c2c1CCC(SCc1ccc(F)cc1)C2 (centres unmarked) ?
<5 M

Okay, and O=C(c1c2c(nn1-c1ccccc1)CCC(NCCc1ccc(C(F)(F)F)cc1)C2)N1CCCCC1 (centres unmarked) ?
<5 M

Try O=C(c1nn(-c2ccccc2)c2c1CC(NCc1ccc(F)cc1)CC2)N1CCCCC1 (centres unmarked) next.
<5 M

What do you get for O=C(c1nn(-c2ccccc2)c2c1CC(NCCc1cccc(O)c1)CC2)N1CCCCC1 (centres unmarked) ?
<5 M

Next record, please: CCCn1nc(C(=O)N(C)C)c2c1CCC(NC(=O)c1ccc(F)cc1)C2 (centres unmarked)
<5 M

Another compound: O=C(c1nn(-c2ccccc2)c2c1CC(NCCc1ccc(C(F)(F)F)cc1)CC2)N1CCCCC1 (centres unmarked)
<5 M

Further, for NC(=O)c1ccc(-n2nc3c(c2C(=O)N2CCCCC2)CC(NCCc2ccccc2)CC3)cc1 (centres unmarked) ?
<5 M

Another compound: CCCn1nc(C(=O)N(C)C)c2c1CCC(OCc1ccc(F)cc1)C2 (centres unmarked)
<5 M

Cool, now O=C(c1nn(Cc2ccccc2)c2c1CC(NCc1ccc(F)cc1)CC2)N1CCCCC1 (centres unmarked)
<5 M

And what about the compound CCCn1nc(C(=O)N(C)C)c2c1CCC(NS(=O)(=O)c1ccc(F)cc1)C2 (centres unmarked) ?
<5 M

###

Biological target: UniProt:Q5BJF2
Experiment: Radioligand binding assay against sigma-2

{"compound": "CCCn1nc(C(=O)N(C)C)c2c1CCC(OCc1ccc(F)cc1)C2 (centres unmarked) [compound 9]", "measuredTarget": "UniProt:Q5BJF2", "activity against sigma-2 (in words)": "completely lost"}
{"compound": "CCCn1nc(C(=O)N(C)C)c2c1CCC(SCc1ccc(F)cc1)C2 (centres unmarked) [compound 11]", "measuredTarget": "UniProt:Q5BJF2", "activity against sigma-2 (in words)": "completely lost"}

###

Target: UniProtKB Q99720
Sequence (Q99720 whole entry): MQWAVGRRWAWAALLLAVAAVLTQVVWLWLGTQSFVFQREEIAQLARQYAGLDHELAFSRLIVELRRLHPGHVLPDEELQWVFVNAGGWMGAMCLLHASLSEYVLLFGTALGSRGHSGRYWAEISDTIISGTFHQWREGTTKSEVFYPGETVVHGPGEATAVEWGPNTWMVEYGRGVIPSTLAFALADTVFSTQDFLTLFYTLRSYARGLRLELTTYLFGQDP
Experiment: Radioligand binding assay against sigma-1

{"compound": "CCCn1nc(C(=O)N(C)C)c2c1CCC(SCc1ccc(F)cc1)C2 (stereo not shown)", "activity against sigma-1 (in words)": "completely lost"}
{"compound": "CCCn1nc(C(=O)N(C)C)c2c1CCC(OCc1ccc(F)cc1)C2 (stereo not shown)", "activity against sigma-1 (in words)": "completely lost"}
